# credit: PubChem BioAssay (NCI)

System: NCI-H522 lung
Test: NCI-60 one-dose screen, 48 h (100 = growth as untreated, 0 = no growth, -100 = all killed)
Conditions: 10 µM unless noted
About 83,000 compounds went through this panel and 20% of them were active in at least one assay; those are over-represented in the sample as a whole.
Each entry below carries its reported growth.
measured_metric: growth (%)

[
  {
    "compound": "O=C(CSc1nc2ccccc2[nH]1)Nc1cccc(Cl)c1",
    "numeric_value": 89
  },
  {
    "compound": "CN1C(=O)CNC(=O)[C@H](NC(=O)c2nc3ccccc3cc2O)CSSC[C@H]1C(=O)NCCCc1nc2ccccc2cc1O",
    "numeric_value": 60.4
  },
  {
    "compound": "COc1cc(OCc2cccc(-c3ccc(C(O)c4nccs4)cc3)c2C)cc(OC)c1CNCCNC(C)=O (stereo not given)",
    "numeric_value": 101
  },
  {
    "compound": "CCOC(=O)C1=C(N)Oc2c(sc3c(CC)cccc23)C1c1ccc(F)cc1 (stereo not given)",
    "numeric_value": 26.4
  },
  {
    "compound": "COc1cc(C2CC(c3cccc(Br)c3)=NN2C(C)=O)cc(OC)c1OC (stereo not given)",
    "numeric_value": -13.8
  },
  {
    "compound": "CC/C=C\\C[C@@H](O)C/C=C1/C(=O)C=C[C@H]1C/C=C\\CCCC(=O)OC",
    "numeric_value": -67.7
  },
  {
    "compound": "Cc1cc(C)c(-c2c(N)cc(Br)cc2Br)c(N)c1",
    "numeric_value": 62.9
  },
  {
    "compound": "O=C1c2cccc3cccc(c23)C(=O)N1Nc1nc(NC2CCCCC2)nc(N2CCOCC2)n1",
    "numeric_value": 93.5
  },
  {
    "compound": "CCCCCCCCCCCCCCCCCCOc1ccccc1CCCOP(=O)(O)OCC[N+](C)(C)C",
    "numeric_value": 67.9
  },
  {
    "compound": "C[C@H](C(=O)Nc1ccc(S(N)(=O)=O)cc1)S(=O)(=O)c1ccccc1",
    "numeric_value": 90.7
  }
]
